System: UO-31 renal
test: NCI-60 one-dose screen, 48 h
condition label: 10 µM unless noted
About 83,000 compounds went through this panel and 20% of them were active in at least one assay; those are over-represented in the sample as a whole. Activity calls are given as the source filed them. The calls were made as follows: active = growth percent below 10; inactive = the rest.
Please answer using one outcome listed in active, inactive

[Q] For this compound, state the assay outcome: `COc1cc(C(=O)/C=C/c2c(-c3cccs3)nc3sccn23)cc(OC)c1OC`
[A] inactive

[Q] For this compound, state the assay outcome: `CCCCC(CCCC)(S(=O)(=O)CC)S(=O)(=O)CC`
[A] inactive

[Q] For this compound, state the assay outcome: `Cn1c2c(cc(S(=O)(=O)c3ccccc3)c1=O)CCc1c-2cnn1-c1ccccc1Cl`
[A] active

[Q] For this compound, state the assay outcome: `COc1ccc(OC)c(/C=C2\Oc3cc(O)ccc3C2=O)c1`
[A] inactive

[Q] For this compound, state the assay outcome: `COc1cc(/C=C2\C(=O)N(c3c(Cl)cccc3Cl)c3ccccc32)cc(OC)c1O`
[A] inactive

[Q] For this compound, state the assay outcome: `O=C(O)C[C@H](O)C[C@H](O)/C=C/c1c(C2CC2)nc2ccccc2c1-c1ccc(F)cc1`
[A] inactive

[Q] For this compound, state the assay outcome: CCCCC(O)Cn1ncc(C(=O)OCC)c1NC(=O)NCc1ccccc1C(F)(F)F (stereo not given)
[A] inactive

[Q] For this compound, state the assay outcome: `COc1cc2nc(N3CCC[C@H](NC4=CC(=O)c5ccccc5C4=O)C3)nc(N)c2cc1OC`
[A] active

[Q] For this compound, state the assay outcome: `O=C(Nc1ccccc1O)c1ccc(NS(=O)(=O)c2cccc3cccnc23)cc1`
[A] inactive

[Q] For this compound, state the assay outcome: `O=C(N/N=C(\CS(=O)(=O)c1ccccc1)c1cc2ccccc2oc1=O)c1ccccc1`
[A] inactive

----------
Test system: MCF7 breast
test: NCI-60 one-dose screen, 48 h
condition label: 10 µM unless noted
About 83,000 compounds went through this panel and 20% of them were active in at least one assay; those are over-represented in the sample as a whole. The source made the active and inactive calls. Rule for the calls: active = growth percent below 10; inactive = the rest.
Please answer using one outcome listed in active, inactive

[Q] For this compound, state the assay outcome: `COC(=O)c1c2c(c(C)[n+]([O-])c1C)C(=O)C=C(NCc1cccc(Cl)c1)C2=O`
[A] active

[Q] For this compound, state the assay outcome: CCOC(=O)C(CC(c1ccccc1)N1CCCCC1)[N+](=O)[O-] (stereo not given)
[A] inactive

[Q] For this compound, state the assay outcome: Cc1c(C)n(CC(O)CNC2CCCCC2C)c2ccccc12 (stereo not given)
[A] active

[Q] For this compound, state the assay outcome: `CN1CCc2c(Sc3ccc(C(=O)NO)cc3)c3ccccc3n2C1`
[A] inactive

[Q] For this compound, state the assay outcome: `CCCCCCCCCCCCSC1=CC(=O)C=CC1=O`
[A] inactive

[Q] For this compound, state the assay outcome: `Cc1c(C(=O)Nc2nc(-c3ccccc3)cs2)nnn1-c1ccccc1Br`
[A] inactive

[Q] For this compound, state the assay outcome: `O=C1C(Br)=C(c2ccccc2)C(=O)C(Br)=C1c1ccccc1`
[A] inactive

[Q] For this compound, state the assay outcome: `O=S(=O)(/N=C1C=C/C(=N\S(=O)(=O)c2ccccc2)c2ccccc2\1)c1ccccc1`
[A] inactive

[Q] For this compound, state the assay outcome: `Cc1c(NCC(=O)Nc2nc3ccccc3[nH]2)c(=O)n(-c2ccccc2)n1C`
[A] inactive

[Q] For this compound, state the assay outcome: CC(=O)N(CC(O)CO)c1c(I)c(C(=O)NCCO)c(I)c(C(=O)NCC(O)CO)c1I (stereo not given)
[A] inactive

----------
System: KM12 colon
test: NCI-60 one-dose screen, 48 h (100 = growth as untreated, 0 = no growth, -100 = all killed)
condition label: 10 µM unless noted
This is part of a sample that, as a whole, favours compounds with a hit. Of some 83,000 tested, about 20% had one in any assay. Activity calls are given as the source filed them. How the source made its calls: active means growth percent below 10; inactive means the rest.
value type: growth

[Q] Requested read-out: growth. Entry: `Cc1c(C(=O)Nc2nc(-c3ccccc3)cs2)nnn1-c1cccc2ccccc12`
[A] 65% [50 µM] (inactive)

[Q] Requested read-out: growth. Entry: CC(C)NCC(O)COc1ccc(CCOCC2CC2)cc1 (stereo not drawn)
[A] 113% (inactive)

[Q] Requested read-out: growth. Entry: COc1c(O)c2c3c(c1OC)-c1ccccc1CC3N(S(=O)(=O)c1ccc(C)cc1)CC2 (stereo not drawn)
[A] 27.8% (inactive)

[Q] Requested read-out: growth. Entry: `O/N=C/c1cccs1`
[A] 110% (inactive)

[Q] Requested read-out: growth. Entry: `CCCCCCCC/C=C\CCCCCCCCOc1cccc(CC(=O)NCC[N+]2(C)CCCCC2)c1`
[A] 43.6% (inactive)

[Q] Requested read-out: growth. Entry: O=C1NC(=O)C2(CCCC2C(=O)O)N1 (stereo not drawn)
[A] 113% (inactive)

[Q] Requested read-out: growth. Entry: `CN1CCN(c2nc(-c3ccncc3)nc3sc4c(c23)CCCCCC4)CC1`
[A] 90.9% (inactive)

[Q] Requested read-out: growth. Entry: `Nc1nc(-c2ccnc(Cl)c2)nn1-c1nc2ccccc2s1`
[A] 101% (inactive)

[Q] Requested read-out: growth. Entry: `O=[N+]([O-])c1cc2c(cc1Br)-c1ccccc1C2`
[A] 58.5% (inactive)

[Q] Requested read-out: growth. Entry: `Cc1oc2c(c1C(=O)N1CC[C@@H](N)C1)C(=O)c1c(c(O)c3ccccc3c1O)C2=O`
[A] 15.7% (inactive)

[Q] Requested read-out: growth. Entry: COc1cc(/C=N/NC(=O)c2cnn3c2NC(c2ccccc2)C3)ccc1OC1CCCC1 (stereo not drawn)
[A] 18.1% (inactive)

[Q] Requested read-out: growth. Entry: `COc1ccccc1/C=C/C(=O)/C=C/c1ccccc1O`
[A] -93.9% (active)

[Q] Requested read-out: growth. Entry: Oc1ccc2ccccc2c1C1NN=C(c2ccccc2)S1 (stereo not drawn)
[A] 23.3% (inactive)

[Q] Requested read-out: growth. Entry: CCOC(=O)C1=C(C)N2C(=NC3=C(CCCC/C3=C\c3ccccc3)C2c2ccccc2)S1 (stereo not drawn)
[A] 97.3% (inactive)

[Q] Requested read-out: growth. Entry: COc1ccc(/C=N/OCC(O)CN2CCC(O)CC2)cc1OC1CCCC1 (stereo not drawn)
[A] 109% (inactive)

[Q] Requested read-out: growth. Entry: `COc1cc(/C=C2\C(=O)Nc3ccccc32)cc(OC)c1O`
[A] 32.2% (inactive)

[Q] Requested read-out: growth. Entry: `CSc1nnc(-c2sc3nnc(-c4ccccc4)c(-c4ccccc4)c3c2O)o1`
[A] 72.9% (inactive)

[Q] Requested read-out: growth. Entry: `Brc1ccc(Br)nn1`
[A] -50.7% (active)

----------
Test system: LOX IMVI melanoma
test: NCI-60 one-dose screen, 48 h
condition label: 10 µM unless noted
The panel holds about 83,000 compounds, 20% with a hit somewhere; the sample as a whole holds those more often. Calls of active or inactive are those of the source. How the source made its calls: active means growth percent below 10; inactive means the rest.
Please answer using one outcome listed in active, inactive

[Q] For this molecule, state the assay outcome: `CCCCC(CCCC)(S(=O)(=O)CC)S(=O)(=O)CC`
[A] inactive

[Q] For this molecule, state the assay outcome: `C=CC(=O)N1CC2(CCC(n3nc(-c4ccc(Oc5ccccc5)cc4)c4c(N)ncnc43)CC2)C1`
[A] active

[Q] For this molecule, state the assay outcome: `CN([N-]C(=O)CC(=O)[N-]N(C)C(=S)c1ccccc1)C(=S)c1ccccc1.[Cu+2]`
[A] active

[Q] For this molecule, state the assay outcome: `O=C1C(OCCOc2ccccc2)=C(OCCOc2ccccc2)C(=O)c2ccccc21`
[A] inactive

[Q] For this molecule, state the assay outcome: `CN1CCc2c(Sc3ccc(C(=O)NO)cc3)c3ccccc3n2C1`
[A] inactive

----------
Please respond with reported growth for every item in the list.
Test system: OVCAR-5 ovarian
test: NCI-60 one-dose screen, 48 h (100 = growth as untreated, 0 = no growth, -100 = all killed)
condition label: 10 µM unless noted
The panel holds about 83,000 compounds, 20% with a hit somewhere; the sample as a whole holds those more often.
# output: bare number, implied unit %

[Q] Requested read-out: growth. Entry: `Clc1ccc(C2=Nc3cccc4cccc(c34)N2)cc1Cl`
[A] 126

[Q] Requested read-out: growth. Entry: `O=c1[nH]c(-c2ccncc2)nc2sc3c(c12)CCCCCC3`
[A] 80

[Q] Requested read-out: growth. Entry: `CC(=O)c1cc(C)c(OC(=O)c2ccccc2)c(C)c1`
[A] 106

[Q] Requested read-out: growth. Entry: `COc1ccccc1/C=C/C(=O)/C=C/c1ccccc1O`
[A] -35

[Q] Requested read-out: growth. Entry: `O=C(O)C[C@H](O)C[C@H](O)/C=C/c1c(C2CC2)nc2ccccc2c1-c1ccc(F)cc1`
[A] 79

[Q] Requested read-out: growth. Entry: `COCCOC1=C(Cl)C(=O)c2ccccc2C1=O`
[A] 31.6

[Q] Requested read-out: growth. Entry: O=C1C2CC3C(CC2C(=O)[N]1[Sn]([c]1ccccc1)([c]1ccccc1)[c]1ccccc1)C1(Cl)C(Cl)=C(Cl)C3(Cl)C1(Cl)Cl (stereo not given)
[A] -100

[Q] Requested read-out: growth. Entry: COc1cc(C2C3=C(COC3=O)N(CCO)c3cc4c(cc32)OCO4)cc(OC)c1O (stereo not given)
[A] 72

[Q] Requested read-out: growth. Entry: `O=C1c2ccccc2C(=O)c2c(Nc3ccc(CCO)cc3)ccc(O)c21`
[A] 105

[Q] Requested read-out: growth. Entry: `C(=C\c1ccccc1)/CN1CCN(C(c2ccccc2)c2ccccc2)CC1`
[A] 101
